Reference source: patent US7067538B2

# melting point annotations

| COMPOUND_SMILES | melting point |
| --- | --- |
| COC(=O)CC(=O)CS(=O)(=O)C(c1ccc(Cl)cc1)c1ccc(Cl)cc1 | 76 to 78 °C |
| O=C(CC(=O)Nc1ccccc1Cl)CS(=O)(=O)C(c1ccc(Cl)cc1)c1ccc(Cl)cc1 | 92 to 95 °C |
| O=C(Cc1ccc(F)cc1)CS(=O)(=O)C(c1ccc(Cl)cc1)c1ccc(Cl)cc1 | 106 to 107 °C |
| CC(=O)CCS(=O)(=O)C(c1ccc(Cl)cc1)c1ccc(Cl)cc1 | 103 to 105 °C |
| COc1ccc(OCC(=O)CS(=O)(=O)C(c2ccc(Cl)cc2)c2ccc(Cl)cc2)cc1 | 116 to 117 °C |
| O=C(COc1ccccc1)CS(=O)(=O)C(c1ccc(Cl)cc1)c1ccc(Cl)cc1 | 110 to 112 °C |
| O=C(CS(=O)(=O)C(c1ccc(Cl)cc1)c1ccc(Cl)cc1)c1ccccn1 | 120 to 121 °C |
| O=C(CS(=O)(=O)C(c1ccc(Cl)cc1)c1ccc(Cl)cc1)C(F)(F)F | 60 to 62 °C |
| CC(=O)OCC(=O)CS(=O)(=O)C(c1ccc(Cl)cc1)c1ccc(Cl)cc1 | 57 to 60 °C |

----------
TARGET_OR_SYSTEM: MCP-1 receptor (300-19 cell membranes) (Homo sapiens)
Construct: host or cells: 300-19 cells (membrane preparation)
Sequence (P41597 whole entry): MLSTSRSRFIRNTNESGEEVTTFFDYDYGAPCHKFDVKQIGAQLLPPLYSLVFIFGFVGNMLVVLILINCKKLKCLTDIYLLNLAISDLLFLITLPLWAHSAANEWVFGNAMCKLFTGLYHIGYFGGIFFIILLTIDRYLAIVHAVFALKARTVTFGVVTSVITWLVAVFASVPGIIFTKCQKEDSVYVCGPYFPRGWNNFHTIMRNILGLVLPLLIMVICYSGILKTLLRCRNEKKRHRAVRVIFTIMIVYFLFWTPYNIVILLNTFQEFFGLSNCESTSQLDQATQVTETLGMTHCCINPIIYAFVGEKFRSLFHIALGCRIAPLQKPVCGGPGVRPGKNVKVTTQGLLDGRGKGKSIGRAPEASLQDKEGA
TEST_METHOD_NOTES: Inhibition of binding of 125I-MCP-1 to 300-19 cell membranes
CONDITIONS_USED: 300-19 cell membranes 1.0 μg/well, 125I-MCP-1 0.15 nM, 3 hours at room temperature; read-out: IC50 of the inhibition of the binding of the iodinated MCP-1

| COMPOUND | IC50 [µM] |
| --- | --- |
| O=C(COc1ccccc1)CS(=O)(=O)C(c1ccc(Cl)cc1)c1ccc(Cl)cc1 [Example 10] | 3.45 |
| COc1ccc(OCC(=O)CS(=O)(=O)C(c2ccc(Cl)cc2)c2ccc(Cl)cc2)cc1 [Example 11] | 3.4 |
| O=C(CS(=O)(=O)C(c1ccc(Cl)cc1)c1ccc(Cl)cc1)c1cccs1 [Example 19] | 6.15 |
| O=C(CS(=O)(=O)Cc1ccccc1)CS(=O)(=O)C(c1ccc(Cl)cc1)c1ccc(Cl)cc1 [Example 27] | 2.7 |

----------
TEST_METHOD_NOTES: Pharmacokinetics in rats after intravenous infusion and oral gavage
Type: in vivo
CONDITIONS_USED: rat, in vivo, iv, 1 mg/kg

| COMPOUND | Vd [L/kg] |
| --- | --- |
| O=C(CS(=O)(=O)C(c1ccc(Cl)cc1)c1ccc(Cl)cc1)C(F)F [Example 8] | 0.28 |

----------
| MOLECULE | melting point |
| --- | --- |
| CC(=O)CS(=O)(=O)C(c1ccc(Cl)cc1)c1ccc(Cl)cc1 | 114 to 115 °C |
| CN(C)C(=O)c1ccc(C(=O)CSC(c2ccc(Cl)cc2)c2ccc(Cl)cc2)s1 | 150 to 151 °C |
| O=C(CS(=O)(=O)C(c1ccc(Cl)cc1)c1ccc(Cl)cc1)c1cccs1 | 150 to 151 °C |
| O=C(CS(=O)(=O)C(c1ccc(Cl)cc1)c1ccc(Cl)cc1)c1ccco1 | 138 to 139 °C |
| COCC(=O)CS(=O)(=O)C(c1ccc(Cl)cc1)c1ccc(Cl)cc1 | 124 to 125 °C |
| O=C(Cc1ccccc1)CS(=O)(=O)C(c1ccc(Cl)cc1)c1ccc(Cl)cc1 | 54 to 56 °C |
| O=C(CS(=O)(=O)Cc1ccccc1)CS(=O)(=O)C(c1ccc(Cl)cc1)c1ccc(Cl)cc1 | 72 to 90 °C |
| CC(C)(C)C(=O)CS(=O)(=O)C(c1ccc(Cl)cc1)c1ccc(Cl)cc1 | 128 to 130 °C |
| O=C(COc1ccc(F)cc1F)CS(=O)(=O)C(c1ccc(Cl)cc1)c1ccc(Cl)cc1 | 54 to 56 °C |
| O=C(CCc1ccccc1)CS(=O)(=O)C(c1ccc(Cl)cc1)c1ccc(Cl)cc1 | 106 to 107 °C |
| O=C(CC(F)(F)F)CS(=O)(=O)C(c1ccc(Cl)cc1)c1ccc(Cl)cc1 | 48 to 50 °C |
| O=C(CBr)CS(=O)(=O)C(c1ccc(Cl)cc1)c1ccc(Cl)cc1 | 122 to 123 °C |
| CN(C)C(=O)c1ccc(C(=O)CS(=O)(=O)C(c2ccc(Cl)cc2)c2ccc(Cl)cc2)s1 | 192 to 194 °C |
| C/C=C/C(=O)CS(=O)(=O)C(c1ccc(Cl)cc1)c1ccc(Cl)cc1 | 114 to 116 °C |
| O=C(CF)CS(=O)(=O)C(c1ccc(Cl)cc1)c1ccc(Cl)cc1 | 55 to 58 °C |
| Cn1ccnc1C(=O)CS(=O)(=O)C(c1ccc(Cl)cc1)c1ccc(Cl)cc1 | 160 to 161 °C |
| O=C(COc1ccc(Cl)cc1)CS(=O)(=O)C(c1ccc(Cl)cc1)c1ccc(Cl)cc1 | 105 to 107 °C |
| CC(C)Cc1ccc(C(c2ccc(Cl)cc2)S(=O)(=O)CC(=O)C(F)(F)F)cc1 (stereo not drawn) | 45 to 50 °C |
